- PROTOCOL_DESCRIPTION: NCI Yeast Anticancer Drug Screen. Data for the mec2-1 strain (AID 157)
- CONDITION_SET: S. cerevisiae mec2-1 strain, at 50.0 µM
The panel holds about 79,000 compounds, 15% with a hit somewhere; the sample as a whole holds those more often. Calls of active or inactive are those of the source. No stated cut-off is given here; in the data, active means growth inhibition above about 70%; inactive means the rest.
Classes used: yes (active), no (inactive)

compound=N=c1c(C(=O)O)cccn1O cat=no
compound=OCCOCn1nc(-c2ccccc2)nc1-c1cnccn1 cat=no
compound=O=C(N/N=C\c1ccc(Cl)cc1Cl)c1ccccc1S cat=no
compound=Cc1ncc(N)nc1C cat=no
compound=Nc1[nH]c(=O)nc2snnc12 cat=no
compound=CC1=Nc2nc(=N)nc3cccc(n23)N1 cat=no
compound="O=C(NCc1cccs1)OC1CC2CCC1C2 (stereo not drawn)" cat=no
compound=CCCCCCCCCCCC1=C(O)C(=O)C(Br)=C(O)C1=O cat=no
compound=COC1(OC)C[C@H](C)[C@@]23O[C@]24c2cc(O)c5c(c2N[C@H]3C#C/C=C\C#C[C@]14O)C(=O)c1ccccc1C5=O cat=yes
compound="CC(C)(C)OC(=O)N1CCCC1C(=O)NCCNc1ccc(NCCNC(=O)C2CCCN2C(=O)OC(C)(C)C)c2c1C(=O)c1ccccc1C2=O (stereo not drawn)" cat=no
compound=CC(=O)CC(=O)NCCCN1CCCCC1 cat=no
compound=CN(c1ccccc1Cl)S(=O)(=O)c1ccccc1[N+](=O)[O-] cat=no
compound=C#CCn1cnc2c1c(=O)n(C)c(=O)n2C cat=no

====

- PROTOCOL_DESCRIPTION: NCI Yeast Anticancer Drug Screen. Data for the mec2-1 strain (AID 157)
- CONDITION_SET: S. cerevisiae mec2-1 strain, at 50.0 µM, active compounds read high
- Procedure: Growth inhibition of yeast strains with defined genetic alterations is measured as a screen for potential anti-cancer activity. Selected strains with alterations in DNA damage repair or cell cycle control were exposed to compounds and growth inhibition was measured relative to vehicle treated controls. The strain used in this assay is mec2-1
This is part of a sample that, as a whole, favours compounds with a hit. Of some 79,000 tested, about 15% had one in any assay. Where a SMILES comes first, the peptide text is derived from it. The star is where a group is joined. ONp = O=[N+]([O-])c1ccc(O*)cc1; Tos = Cc1ccc(S(=O)(=O)*)cc1
PARAMETER: growth inhibition (%)

compound=N#Cc1c(-c2ccc(Cl)cc2)cn2c1[nH]c(=O)c1c3c(sc12)CCCC3 test_value=10.2
compound=O=C(Nc1ccccc1Cl)Nc1cccc2ccccc12 test_value=1.3
compound=CN(C)[C@@H]1C(=O)C(C(=O)NCN2CCN(C(=N)N=C(N)N)CC2)=C(O)[C@@]2(O)C(=O)C3=C(O)c4c(O)cccc4[C@@](C)(O)[C@H]3C[C@@H]12 test_value=1.65
compound="CCOC1OC(C2COC(=S)O2)C(O)C1O (configuration not stated)" test_value=-2.15
compound=O=C1c2cc(F)ccc2-c2c(F)cc(F)cc21 test_value=-6.4
compound=C[P+](C)(C)c1ccccc1 test_value=4
compound=CN(C)S(=O)(=O)c1cccc([N+](=O)[O-])c1 test_value=7.5
compound=O=CNC(NC=O)NC=O test_value=-2.2
compound="Cc1ccc(S(=O)(=O)NCC(=O)NCC(=O)Oc2ccc([N+](=O)[O-])cc2)cc1 (Tos-Gly-Gly-ONp)" test_value=13
compound=C=CCNC(=S)Nc1ccc(OC(=O)NC(C)(C)C)cc1 test_value=29.4
compound=Cc1cccc(Cl)c1N=Nc1c(N)nc(N)[nH]c1=O test_value=-20.8
compound=CC1=C(\C=C/C(C)=C/C=C/C(C)=C/C=N/NC(=O)c2cccnc2)C(C)(C)CCC1 test_value=-7.4
